Cited source for all entries: ChEMBL document CHEMBL1149584

Tested on: NB-4
Test: Antiproliferative activity against human NB4 cells after 72 hrs
Assay type: functional, cell-based
Conditions: NB-4, 72 h
Returns: string. Value is condition met if measured IC50 is below 1000 nM, and condition not met if it is greater than or equal to it.

Lab note: IC50 threshold 1000 nM. Does this compound come in strictly under it? `COc1ccc(-c2ccc(/C=C(/Br)C(=O)O)cc2)cc1C12CC3CC(CC(C3)C1)C2`
condition not met

Repeat with `COc1ccc(-c2ccc(/C=C(\Br)C(=O)O)cc2)cc1C12CC3CC(CC(C3)C1)C2`
condition not met

Again, but for `O=C(O)/C=C/c1ccc(-c2cc(CO)c(O)c(C34CC5CC(CC(C5)C3)C4)c2)cc1`
condition met

Try this compound too: `COc1c(O)cc(-c2ccc(/C=C/C(=O)O)cc2)cc1C12CC3CC(CC(C3)C1)C2`
condition met

Same question, `COc1ccc(-c2ccc(/C=C/C(=O)O)cc2)cc1C12CC3CC(CC(C3)C1)C2` this time
condition not met

And for `COc1cc(-c2ccc(/C=C/C(=O)O)cc2)cc(C23CC4CC(CC(C4)C2)C3)c1OC` ?
condition not met

One more compound: `O=Cc1cc(-c2ccc(/C=C/C(=O)O)cc2)cc(C23CC4CC(CC(C4)C2)C3)c1O`
condition not met

Same read-out for `O=C(O)/C=C/c1ccc(-c2cc3c(c(C45CC6CC(CC(C6)C4)C5)c2)OCO3)cc1` ?
condition met

Try this compound too: `O=C(O)/C=C/c1ccc(-c2cc3c(c(C45CC6CC(CC(C6)C4)C5)c2)OCCO3)cc1`
condition met

Now this one: `Cl.NCc1cc(-c2ccc(/C=C/C(=O)O)cc2)cc(C23CC4CC(CC(C4)C2)C3)c1O`
condition met

Follow-up entry: `COc1cc(-c2ccc(/C=C/C(=O)O)cc2)cc(C23CC4CC(CC(C4)C2)C3)c1O`
condition met

Please give the result for `O=C(O)C#Cc1ccc(-c2cc3c(c(C45CC6CC(CC(C6)C4)C5)c2)OCO3)cc1` too.
condition not met

And `O=C(O)/C(Br)=C\c1ccc(-c2cc3c(c(C45CC6CC(CC(C6)C4)C5)c2)OCO3)cc1` ?
condition not met

---

Tested on: IGROV-1
Assay: Antiproliferative activity against human IGROV1 cells after 72 hrs
Type: functional, cell-based
Details: IGROV-1, 72 h
pIC50: −log10 of the molar value.
pIC50 below 6 gives 0.0; pIC50 at or above it gives 1.0.

Please check the record `Cl.NCc1cc(-c2ccc(/C=C/C(=O)O)cc2)cc(C23CC4CC(CC(C4)C2)C3)c1O` and state if its pIC50 is at or above 6.
1.0

Then what about the compound `O=C(O)/C=C/c1ccc(-c2cc3c(c(C45CC6CC(CC(C6)C4)C5)c2)OCO3)cc1` ?
1.0

Follow-up entry: `COc1c(O)cc(-c2ccc(/C=C/C(=O)O)cc2)cc1C12CC3CC(CC(C3)C1)C2`
1.0

Can you handle `O=Cc1cc(-c2ccc(/C=C/C(=O)O)cc2)cc(C23CC4CC(CC(C4)C2)C3)c1O` next?
0.0

Field entry: `O=C(O)/C=C/c1ccc(-c2cccc(C34CC5CC(CC(C5)C3)C4)c2)cc1`
0.0
